- Tested on: Renilla luciferase RNA
- assay.method.text: Barcoded aptazyme variant library screen: un-cleaved Renilla luciferase RNA by barcode read counts, HEK293-T cells
- Format: cell-based
- assay.setup: un-cleaved Renilla luciferase RNA, HEK293-T cells cultured with 1 mM theophylline (ON) over without theophylline (OFF); barcode read counts, triplicate
Consider the following molecules and their measured Fold change in RNA expression between the ON state and the OFF state readings.
Record the value in fold, omitting the unit from your answer.

>  <molecule>
RA233 (nucleic acid, expressed or natural sequence) DNA: GCAGTGATACCAGCATCGTCTTGATGCCCTTGGCAGCACTGCGTCCTGGATTCGCGGAAACGCGTACATCCAGCTGACGAGTCCCAAATAGGACGAAACGCGC

>  <observed.value>
1.1

$$$$

Attention now turns to another entry.
Answer with the recorded Fold change in RNA expression between the ON state and the OFF state of RA252 (nucleic acid, expressed or natural sequence) DNA: GCGCGTCCTGGATTCGCGGAAGTGATACCAGCATCGTCTTGATGCCCTTGGCAGCACTAACGCGTACATCCAGCTGACGAGTCCCAAATAGGACGAAACGCGC only. 1.1
